Source: patent US20210045385A1

System: duck salad (Heteranthera limosa)
protocol-summary: Test D flooded paddy test, visual plant response rating
Type: in vivo
stated-conditions: 250 g ai/ha, scale 0 to 100 (0 no effect, 100 complete control), 13 to 15 d
Experimental: Plant species in the flooded paddy test selected from rice (Oryza sativa), sedge umbrella (small-flower umbrella sedge, Cyperus difformis) duck salad (Heteranthera limosa), and barnyardgrass (Echinochloa crus-galli) were grown to the 2-leaf stage for testing. […] Treated plants and controls were maintained in a greenhouse for 13 to 15 d, after which time all species were compared to controls and visually evaluated. […]
quantity: Plant response rating, Ducksalad (Flood)
Returns: the value as a bare number; no unit string appended.

1) Cc1nn(C)c(=O)c(/C(=N\OC(C)C)c2cccc3cc(Cl)ccc23)c1O 85

Form: compound = `CO/N=C(\c1cc(Cl)c(F)c(Cl)c1)c1c(O)c(C)nn(C)c1=O` ; Plant response rating, Ducksalad (Flood) = 0

Form: compound = `CON=C(c1cc(Cl)cc(F)c1Cl)c1c(O)c(C)nn(C)c1=O` ; Plant response rating, Ducksalad (Flood) = 60

Form: compound = `CC(C)O/N=C(/c1c(O)c(Cl)nn(C)c1=O)c1cc(Br)cc2ccccc12` ; Plant response rating, Ducksalad (Flood) = 30

Form: compound = `CCO/N=C(\c1cc(Cl)cc(Cl)c1Cl)c1c(O)c(C)nn(C)c1=O` ; Plant response rating, Ducksalad (Flood) = 0

Form: compound = `CCCCO/N=C(\c1cc(Cl)cc(Cl)c1Cl)c1c(O)c(C)nn(C)c1=O` ; Plant response rating, Ducksalad (Flood) = 0

Form: compound = `CON=C(c1cc(Cl)cc(Cl)c1F)c1c(O)c(C)nn(C)c1=O` ; Plant response rating, Ducksalad (Flood) = 55

Form: compound = `CON=C(c1cc(Cl)cc(Cl)c1Cl)c1c(O)c(C)nn(C)c1=O` ; Plant response rating, Ducksalad (Flood) = 70

Form: compound = `CO/N=C(\c1c(O)c(Cl)nn(C)c1=O)c1ccc(F)c2ccccc12` ; Plant response rating, Ducksalad (Flood) = 0

Form: compound = `C#CCO/N=C(/c1cccc(/C=C\Cl)c1)c1c(O)c(C)nn(C)c1=O` ; Plant response rating, Ducksalad (Flood) = 0

Form: compound = `CON=C(c1cccc(OCC(F)(F)F)c1)c1c(O)c(C)nn(C)c1=O` ; Plant response rating, Ducksalad (Flood) = 0

Form: compound = `C#CCO/N=C(\c1cccc(Br)c1)c1c(O)c(C)nn(C)c1=O` ; Plant response rating, Ducksalad (Flood) = 0

Form: compound = `CCO/N=C(\c1c(O)c(Cl)nn(C)c1=O)c1ccc(F)c2ccccc12` ; Plant response rating, Ducksalad (Flood) = 60

Form: compound = `CON=C(c1ccc(F)c(Br)c1)c1c(O)c(C)nn(C)c1=O` ; Plant response rating, Ducksalad (Flood) = 0
